# assay_procedure: Blood drug concentration in mice after single intraperitoneal administration
# Format: in vivo, Balb/c strain mice
# condition_notes: Balb/c, mouse, serum, ip, 2.5 mg/kg, IP 2.5 mg/kg, 0.5 hr, individual animals, read-out: Concentration (blood)
attribute_measured: concentration at 0.5 h (ng/mL)
Write down the numeric answer in ng/mL and omit the unit.

For the molecule CCOC(=O)c1[nH]c(C)c(CCC(=O)N2CCCC(C(=O)NCCN3CCCCCC3)C2)c1C (stereo not shown) [compound of Formula I] , give its measured concentration at 0.5 h value.
364

* * *

# assay_procedure: Blood drug concentration in mice after single intraperitoneal administration
# Assay type: in vivo, Balb/c strain mice
# condition_notes: Balb/c, mouse, serum, ip, 2.5 mg/kg, IP 2.5 mg/kg, 0.5 hr, mean of 3 animals, read-out: Concentration (blood) Mean
# Experimental: Compound preparation: A compound of Formula I was commercially available, which was dissolved and diluted with a solution comprising 10% DMSO+90% (20% HP-β-CD). […]
attribute_measured: concentration at 0.5 h (ng/mL)
Write down the numeric answer in ng/mL and omit the unit.

For the compound CCOC(=O)c1[nH]c(C)c(CCC(=O)N2CCCC(C(=O)NCCN3CCCCCC3)C2)c1C (stereo not shown) , give its measured concentration at 0.5 h value.
374

* * *

# assay_procedure: CCK8 cell viability (toxicity) assay in primary neurons
# Type: cell-based, mouse
# condition_notes: ICR, mouse, primary hippocampal neurons, 20 µmol, 24 h, CCK8, three replicate wells
attribute_measured: viability at 24 h, 20 µmol
Could you kindly put the unit after your number?

For the molecule CCOC(=O)c1[nH]c(C)c(CCC(=O)N2CCCC(C(=O)NCCN3CCCCCC3)C2)c1C (stereo not shown) , give its measured viability at 24 h, 20 µmol value.
37.1%

* * *

# assay_procedure: CCK8 cell viability (toxicity) assay in 293T cell line
# Assay type: cell-based
# condition_notes: human, 293T cells, 293T, 160 µmol, 24 h, CCK8, three replicate wells
attribute_measured: viability at 24 h, 160 µmol (%)
Write down the numeric answer in % and omit the unit.

For the compound CCOC(=O)c1[nH]c(C)c(CCC(=O)N2CCCC(C(=O)NCCN3CCCCCC3)C2)c1C (stereo not shown) , give its measured viability at 24 h, 160 µmol value.
27.2

* * *

# assay_procedure: CCK8 cell viability (toxicity) assay in primary neurons
# Type: cell-based, mouse
# condition_notes: ICR, mouse, primary hippocampal neurons, 10 µmol, 24 h, CCK8, three replicate wells
attribute_measured: viability at 24 h, 10 µmol
Could you kindly put the unit after your number?

For the compound CCOC(=O)c1[nH]c(C)c(CCC(=O)N2CCCC(C(=O)NCCN3CCCCCC3)C2)c1C (stereo not shown) , give its measured viability at 24 h, 10 µmol value.
51.8%

* * *

# assay_procedure: Drug content in brain tissue after single intraperitoneal administration
# Format: in vivo, Balb/c strain mice
# condition_notes: Balb/c, mouse, brain, ip, 2.5 mg/kg, mice, IP 2.5 mg/kg, 0.5 hr, mean of 3 animals; read-out: Concentration (brain tissue) Mean
attribute_measured: concentration at 0.5 h (ng/mL)
Write down the numeric answer in ng/mL and omit the unit.

For the compound CCOC(=O)c1[nH]c(C)c(CCC(=O)N2CCCC(C(=O)NCCN3CCCCCC3)C2)c1C (stereo not shown) , give its measured concentration at 0.5 h value.
13.8
